The reported numbers originate from patent US12552796B2.

Record form. Attribute: half-life. Fill in for each entry.
- Experiment summary: Pharmacokinetic study in rats
- Type: in vivo, SD rats
- Condition: male, SD, plasma; rat, IV, 1 mg/kg
One number for each entry, in h.

Field: example entries. Status: answers known.
{"columns": ["Molecule", "U", "half-life"],
 "data": [
  ["CCN(C(=O)C1CC1)c1cnc(NCc2c(F)ccc3c2CCO3)n2cnnc12 [HJM-079]", "h", 0.92],
  ["CC1(COc2cnc(NCc3c(F)ccc4c3CCO4)n3cnnc23)COC1 [HJM-105]", "h", 1.82],
  ["CN(C(=O)C1CC1)c1cnc(NCc2c(F)ccc3c2CCO3)n2cnnc12 [HJM-045]", "h", 1.17],
  ["O=C(Nc1cnc(NCc2c(F)ccc3c2CCO3)n2cnnc12)C1CC1 [HJM-030]", "h", 1.7],
  ["Fc1ccc2c(c1CNc1ncc(OC3CCOCC3)c3nncn13)CCO2 [HJM-016]", "h", 2.33]
]}

I'm hoping you can list half-life for every molecule here, please.
1. Fc1ccc2c(c1CNc1ncc(OCC3CCOC3)c3nncn13)CCO2 (centres unmarked) [HJM-102]
2. Fc1ccc2c(c1CNc1ncc(OCC3COC3)c3nncn13)CCO2 [HJM-104]
3. O=C1CCCN1c1cnc(NCc2c(F)ccc3c2CCO3)n2cnnc12 [HJM-067]

1: 1.98; 2: 2.7; 3: 3
